All figures here come from patent US11584775B2.

# Test system: IFNγ-induced Nitric Oxide production
# Test Method Notes: Nitric oxide production assay in RAW 264.7 mouse macrophages
# Type: cell-based
# Assay Context: RAW264.7, suppression of IFNγ-induced NO production normalized to cell viability (WST-1), RAW 264.7, 24 hours IFNγ
Provide the recorded IC50 for the entries that follow.
Record the value in nM, omitting the unit from your answer.

IFNγ-induced Nitric Oxide production / IC50 / CC1(C)CC[C@@]23CC[C@@]4(C)[C@]5(C)CC[C@@H]6[C@](C)(C=C(C#N)C(=O)[C@@]6(C)CO)C5=CC(=O)[C@]4(OC2=O)[C@@H]3C1 [Compound T31] : value?
10.5

IFNγ-induced Nitric Oxide production / IC50 / CC1(C)CC[C@]2(NC(=O)C(C)(F)F)CC[C@]3(C)[C@H](C(=O)C=C4[C@@]5(C)C=C(C#N)C(=O)[C@@](C)(CO)[C@@H]5CC[C@]43C)[C@@H]2C1 [Compound T28] : value?
21.1

IFNγ-induced Nitric Oxide production / IC50 / COC(=O)[C@]12CCC(C)(C)C[C@H]1[C@H]1C(=O)C=C3[C@@]4(C)C=C(C#N)C(=O)C[C@@H]4CC[C@@]3(C)[C@]1(C)CC2 [Compound T1] : value?
8.1

IFNγ-induced Nitric Oxide production / IC50 / Cc1noc([C@]23CCC(C)(C)C[C@H]2[C@H]2C(=O)C=C4[C@@]5(C)[C@H]6O[C@@]6(C#N)C(=O)[C@@](C)(O)[C@@H]5CC[C@@]4(C)[C@]2(C)CC3)n1 [Compound T49] : value?
37.5

IFNγ-induced Nitric Oxide production / IC50 / CC1(C)CC[C@]2(C(=O)NCC(F)(F)F)CC[C@]3(C)[C@H](C(=O)C=C4[C@@]5(C)C=C(C#N)C(=O)[C@@](C)(O)[C@@H]5CC[C@]43C)[C@@H]2C1 [Compound T24] : value?
184

IFNγ-induced Nitric Oxide production / IC50 / COC(=O)[C@]12CCC(C)(C)C[C@H]1[C@H]1C(=O)C=C3[C@@]4(C)C=C(C#N)C(=O)[C@](C)(C(=O)OC)[C@@H]4CC[C@@]3(C)[C@]1(C)CC2 [Compound T3] : value?
22.3

IFNγ-induced Nitric Oxide production / IC50 / CNC(=O)[C@]1(C)C(=O)C(C#N)=C[C@]2(C)C3=CC(=O)[C@@H]4[C@@H]5CC(C)(C)CC[C@]5(C(=O)OC)CC[C@@]4(C)[C@]3(C)CC[C@@H]12 [Compound T13] : value?
295

IFNγ-induced Nitric Oxide production / IC50 / COC(=O)[C@]1(C)C(=O)C(C#N)=C[C@]2(C)C3=CC(=O)[C@]45OC(=O)[C@@]6(CCC(C)(C)C[C@H]64)CC[C@@]5(C)[C@]3(C)CC[C@@H]12 [Compound T34] : value?
383

IFNγ-induced Nitric Oxide production / IC50 / COC(=O)[C@]12CCC(C)(C)C[C@H]1[C@H]1C(=O)C=C3[C@@]4(C)C=C(C#N)C(=O)[C@@](C)(C(=O)N(C)C)[C@@H]4CC[C@@]3(C)[C@]1(C)CC2 [Compound T14] : value?
164

IFNγ-induced Nitric Oxide production / IC50 / COC(=O)N[C@]12CCC(C)(C)C[C@H]1[C@H]1C(=O)C=C3[C@@]4(C)C=C(C#N)C(=O)C(C)(C)[C@@H]4CC[C@@]3(C)[C@]1(C)CC2 [Comparison Compound #7, reference compound] : value?
2.4

IFNγ-induced Nitric Oxide production / IC50 / CC1(C)CC[C@]2(NC(=O)C(C)(F)F)CC[C@]3(C)[C@H](C(=O)C=C4[C@@]5(C)C=C(C#N)C(=O)[C@@](C)(O)[C@@H]5CC[C@]43C)[C@@H]2C1 [Compound T27] : value?
146

IFNγ-induced Nitric Oxide production / IC50 / CCNC(=O)[C@]12CCC(C)(C)C[C@H]1[C@H]1C(=O)C=C3[C@@]4(C)C=C(C#N)C(=O)C(C)(C)[C@@H]4CC[C@@]3(C)[C@]1(C)CC2 [Comparison Compound #3, reference compound] : value?
3.4

IFNγ-induced Nitric Oxide production / IC50 / COC(=O)[C@]12CCC(C)(C)C[C@H]1[C@H]1C(=O)C=C3[C@@]4(C)C=C(C#N)C(=O)[C@@](C)(C(F)F)[C@@H]4CC[C@@]3(C)[C@]1(C)CC2 [Compound T4] : value?
19.6

IFNγ-induced Nitric Oxide production / IC50 / C[C@@H]1C(=O)C(C#N)=C[C@]2(C)C3=CC(=O)[C@@H]4[C@@H]5CC(C)(C)CC[C@]5(NC(=O)C(C)(F)F)CC[C@@]4(C)[C@]3(C)CC[C@@H]12 [Comparison Compound #4, reference compound] : value?
0.6

* * *

Provide the recorded pIC50 for the entries that follow.
# System: hIL17
# Test Method Notes: IL-17 release from differentiated primary human T-cells (IL-17A HTRF assay)
# Format: cell-based
# Assay Context: inhibition of IL-17A levels; primary human CD4+ T cells differentiated into Th17 cells, 46-hour incubation
Expect pIC50 as a plain number equal to -log10 of the molar concentration.

Return reported pIC50; argument: "CC1(C)CC[C@@]23CC[C@@]4(C)[C@]5(C)CC[C@H]6[C@](C)(O)C(=O)C(C#N)=C[C@]6(C)C5=CC(=O)[C@]4(OC2=O)[C@@H]3C1"
7.60

Return reported pIC50; argument: CCNC(=O)[C@]12CCC(C)(C)C[C@H]1[C@H]1C(=O)C=C3[C@@]4(C)C=C(C#N)C(=O)C(C)(C)[C@@H]4CC[C@@]3(C)[C@]1(C)CC2 [Comparison Compound #3, reference compound]
7.09

Return reported pIC50; argument: COC(=O)[C@]12CCC(C)(C)C[C@H]1[C@@]1(O)C(=O)C=C3[C@@]4(C)C=C(C#N)C(=O)C(C)(C)[C@@H]4CC[C@@]3(C)[C@]1(C)CC2 [Comparison Compound #5, reference compound]
7.82

Return reported pIC50; argument: CC1(C)CC[C@]2(C(=O)NCC(F)(F)F)CC[C@]3(C)[C@H](C(=O)C=C4[C@@]5(C)C=C(C#N)C(=O)C(C)(C)[C@@H]5CC[C@]43C)[C@@H]2C1 [Comparison Compound #2, reference compound]
7.40

Return reported pIC50; argument: "COC(=O)[C@]12CCC(C)(C)C[C@H]1[C@@]1(O)C(=O)C=C3[C@@]4(C)C=C(C#N)C(=O)[C@@](C)(O)[C@@H]4CC[C@@]3(C)[C@]1(C)CC2"
7.80

Return reported pIC50; argument: "COC(=O)[C@]12CCC(C)(C)C[C@H]1[C@H]1C(=O)C=C3[C@@]4(C)C=C(C#N)C(=O)[C@](C)(O)[C@@H]4CC[C@@]3(C)[C@]1(C)CC2"
7.49

Return reported pIC50; argument: "CC(=O)OC[C@]1(C)C(=O)C(C#N)=C[C@]2(C)C3=CC(=O)[C@@H]4[C@@H]5CC(C)(C)CC[C@]5(c5nc(C)no5)CC[C@@]4(C)[C@]3(C)CC[C@H]21"
7.89

Return reported pIC50; argument: "COC[C@]1(C)C(=O)C(C#N)=C[C@]2(C)C3=CC(=O)[C@@H]4[C@@H]5CC(C)(C)CC[C@]5(C(=O)OC)CC[C@@]4(C)[C@]3(C)CC[C@H]21"
7.68

Return reported pIC50; argument: "COC(=O)[C@]12CCC(C)(C)C[C@H]1[C@H]1C(=O)C=C3[C@@]4(C)C=C(C#N)C(=O)[C@@](C)(C(=O)OC)[C@@H]4CC[C@@]3(C)[C@]1(C)CC2"
7.72

Return reported pIC50; argument: "COC(=O)[C@]12CCC(C)(C)C[C@H]1[C@H]1C(=O)C=C3[C@@]4(C)C=C(C#N)C(=O)[C@@](C)(O)[C@@H]4CC[C@@]3(C)[C@]1(C)CC2"
7.74

* * *

# Test system: IFNγ-induced Nitric Oxide production
# Test Method Notes: Nitric oxide production assay in RAW 264.7 mouse macrophages
# Format: cell-based
# Assay Context: RAW264.7, suppression of IFNγ-induced NO production normalized to cell viability (WST-1), RAW 264.7, 24 hours IFNγ
Under this convention, Criterion met denotes IC50 strictly below 80 nM and Criterion not met denotes IC50 at or above 80 nM.

Just wondering, is IC50 of "COC(=O)[C@]12CCC(C)(C)C[C@H]1[C@@]1(O)C(=O)C=C3[C@@]4(C)C=C(C#N)C(=O)[C@@](C)(O)[C@@H]4CC[C@@]3(C)[C@]1(C)CC2" below 80 nM?
Criterion met

Just wondering, is IC50 of "CN(C)C(=O)[C@]1(C)C(=O)C(C#N)=C[C@]2(C)C3=CC(=O)[C@]45OC(=O)[C@@]6(CCC(C)(C)C[C@H]64)CC[C@@]5(C)[C@]3(C)CC[C@@H]12" below 80 nM?
Criterion not met

Just wondering, is IC50 of CC1(C)CC[C@]2(C(=O)NCC(F)(F)F)CC[C@]3(C)[C@H](C(=O)C=C4[C@@]5(C)C=C(C#N)C(=O)C(C)(C)[C@@H]5CC[C@]43C)[C@@H]2C1 [Comparison Compound #2, reference compound] below 80 nM?
Criterion met

Just wondering, is IC50 of "COC(=O)[C@]12CCC(C)(C)C[C@H]1[C@H]1C(=O)C=C3[C@@]4(C)C=C(C#N)C(=O)[C@@](C)(c5nnc(C)o5)[C@@H]4CC[C@@]3(C)[C@]1(C)CC2" below 80 nM?
Criterion not met

Just wondering, is IC50 of "CC(=O)OC[C@]1(C)C(=O)C(C#N)=C[C@]2(C)C3=CC(=O)[C@@H]4[C@@H]5CC(C)(C)CC[C@]5(c5nnc(C)o5)CC[C@@]4(C)[C@]3(C)CC[C@H]21" below 80 nM?
Criterion not met

Just wondering, is IC50 of "COCOC[C@]1(C)C(=O)C(C#N)=C[C@]2(C)C3=CC(=O)[C@@H]4[C@@H]5CC(C)(C)CC[C@]5(C(=O)OC)CC[C@@]4(C)[C@]3(C)CC[C@H]21" below 80 nM?
Criterion not met

Just wondering, is IC50 of "CC1(C)CC[C@]2(C(=O)NCC(F)(F)F)CC[C@]3(C)[C@H](C(=O)C=C4[C@@]5(C)C=C(C#N)C(=O)[C@@](C)(CO)[C@@H]5CC[C@]43C)[C@@H]2C1" below 80 nM?
Criterion met

Just wondering, is IC50 of "CC(=O)OC[C@]1(C)C(=O)C(C#N)=C[C@]2(C)C3=CC(=O)[C@]45OC(=O)[C@@]6(CCC(C)(C)C[C@H]64)CC[C@@]5(C)[C@]3(C)CC[C@H]21" below 80 nM?
Criterion not met

Just wondering, is IC50 of "CC(=O)OC[C@]1(C)C(=O)C(C#N)=C[C@]2(C)C3=CC(=O)[C@@H]4[C@@H]5CC(C)(C)CC[C@]5(c5nc(C)no5)CC[C@@]4(C)[C@]3(C)CC[C@H]21" below 80 nM?
Criterion not met
